- System tested: GSK-3α/β
- Protocol description: GSK-3α/β in vitro kinase assay (33P-ATP, GS-1 peptide)
- Particulars: 15 μM ATP, 30 min at 30 °C, triplicate; <50% inhibition at 10 µM reported as >10; read-out: GSK3 IC50
# note: exactly 2000 nM is not below, so it is Not met; use Met for IC50 strictly under it

- Molecule: "CN(C)CCNC(=N)c1nc2ccc3ncnc(Nc4ccc(F)c(Cl)c4)c3c2s1 [Compound 10d]"
  Category: "Not met"

INPUT: Below 2000 nM on IC50? Entry NC(=O)c1nc2ccc3ncnc(Nc4ccc5c(c4)OCO5)c3c2s1
OUTPUT: Met

INPUT: Below 2000 nM on IC50? Entry COc1ccc(Nc2ncnc3ccc4nc(C(=N)NCCN5CCCCC5)sc4c23)cc1
OUTPUT: Not met

INPUT: Below 2000 nM on IC50? Entry CN(C)CCNC(=N)c1nc2ccc3ncnc(Nc4ccc5c(c4)OCO5)c3c2s1
OUTPUT: Met

INPUT: Below 2000 nM on IC50? Entry N=C(NCc1ccccc1)c1nc2ccc3ncnc(Nc4ccc(Br)cc4F)c3c2s1
OUTPUT: Met

INPUT: Below 2000 nM on IC50? Entry COC(=N)c1nc2ccc3ncnc(Nc4ccc(OC)cc4)c3c2s1
OUTPUT: Met

The measurements presented in this section are drawn from paper PMC6270991.
